Listed here: items and their measured Luciferase activation soluble 10 nM IgG, FOC.
target: human TREM2/DAP12 fusion protein (human, UniProt O43914 41-113, limits assumed); assay: cell-based or functional assay
Sequence (O43914 other isoform, or with tags, fused parts or gaps limits assumed): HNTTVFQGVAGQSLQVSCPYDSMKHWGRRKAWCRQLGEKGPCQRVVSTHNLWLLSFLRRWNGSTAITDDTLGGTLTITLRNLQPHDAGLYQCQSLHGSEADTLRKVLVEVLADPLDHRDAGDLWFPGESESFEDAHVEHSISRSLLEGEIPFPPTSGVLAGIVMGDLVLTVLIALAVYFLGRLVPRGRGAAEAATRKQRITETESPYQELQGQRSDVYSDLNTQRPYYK
Unit FOC implied. Number only.

Use the examples below as a reference point.
[
  {
    "BINDER": "AL2p-5 (antibody, V domains shown, AL2p-h50 variant; Fab and IgG formats under one id; also called AL2-5) VH: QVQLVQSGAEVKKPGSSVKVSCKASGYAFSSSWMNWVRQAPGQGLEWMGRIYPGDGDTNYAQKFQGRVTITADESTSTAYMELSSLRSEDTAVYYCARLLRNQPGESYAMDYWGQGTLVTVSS VL: DVVMTQTPLSLSVTPGQPASISCRSSQSLVHSNRYTYLHWYLQKPGQSPQLLIYKVSNRFSGVPDRFSGSGSGTDFTLKISRVEAEDVGVYYCSQSTRVPYTFGQGTKLEIK",
    "UNIT ABBREVIATION": "FOC",
    "READOUT VALUE": 1.27
  },
  {
    "BINDER": "AL2p-20 (antibody, V domains shown, Fab and IgG formats under one id) VH: QVQLVQSGAEVKKPGSSVKVSCKASGYAFSSHWMNWVRQAPGQGLEWMGRIYPGDGDTNYARKFQGRVTITADESTSTAYMELSSLRSEDTAVYYCARLLRNQPGESYAMDYWGQGTLVTVSS VL: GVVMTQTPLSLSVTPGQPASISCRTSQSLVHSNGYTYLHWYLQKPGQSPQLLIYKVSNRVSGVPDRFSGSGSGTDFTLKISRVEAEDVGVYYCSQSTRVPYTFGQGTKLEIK",
    "UNIT ABBREVIATION": "FOC",
    "READOUT VALUE": 2.12
  },
  {
    "BINDER": "AL2p-24 (antibody, V domains shown, Fab and IgG formats under one id) VH: QVQLVQSGAEVKKPGSSVKVSCKASGYAFSSHWMNWVRQAPGQGLEWMGRIYPGGGDTNYAQKFQGRVTITADESTSTAYMELSSLRSEDTAVYYCARLLRNQPGESYAMDYWGQGTLVTVSS VL: GVVMTQTPLSLSVTPGQPASISCRSSRSLVHSNGYTYLHWYLQKPGQSPQLLIYKVSNRFSGVPDRFSGSGSGTDFTLKISRVEAEDVGVYYCSQSTRVPYTFGQGTKLEIK",
    "UNIT ABBREVIATION": "FOC",
    "READOUT VALUE": 2.12
  }
]

Pending binder:
Problem: Looking for the measured Luciferase activation soluble 10 nM IgG, FOC of AL2p-22 (antibody, V domains shown, Fab and IgG formats under one id) VH: QVQLVQSGAEVKKPGSSVKVSCKASGYAFSSHWMNWVRQAPGQGLEWMGRIYPGDGDTNYAYKFQGRVTITADESTSTAYMELSSLRSEDTAVYYCARLLRNQPGESYAMDYWGQGTLVTVSS VL: GVVMTQTPLSLSVTPGQPASISCRSSRSLVHSNGYTYLHWYLQKPGQSPQLLIYKVSNRRSGVPDRFSGSGSGTDFTLKISRVEAEDVGVYYCSQSTRVPYTFGQGTKLEIK , can you help?
Result: 1.75
